target: orphan receptor Singlet_413 (Homo sapiens, UniProt Q8TDS5); construct: expressed in transfected cells; assay: Ligand fishing: transient Ca2+ signal (Flipr384, Fluo-4) in CHO-K1-CRE cells stably transfected with Singlet_413; format: cell-based; conditions: not primed
Sequence (Q8TDS5 whole entry): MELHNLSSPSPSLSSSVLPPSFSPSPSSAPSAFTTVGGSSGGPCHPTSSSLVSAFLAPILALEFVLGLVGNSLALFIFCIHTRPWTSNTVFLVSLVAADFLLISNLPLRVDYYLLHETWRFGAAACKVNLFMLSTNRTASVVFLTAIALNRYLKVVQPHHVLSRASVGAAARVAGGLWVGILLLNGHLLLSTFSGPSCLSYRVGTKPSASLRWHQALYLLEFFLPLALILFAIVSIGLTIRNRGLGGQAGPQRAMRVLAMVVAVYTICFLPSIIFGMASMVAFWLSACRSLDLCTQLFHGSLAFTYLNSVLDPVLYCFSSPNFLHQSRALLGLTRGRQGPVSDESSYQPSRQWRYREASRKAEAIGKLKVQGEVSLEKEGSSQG
Recorded measurements of dF/F (Fmax−Fbasal)/Fbasal, CHO-CRE Singlet_413, np, one per entry
measuredMetric: dF/F (Fmax−Fbasal)/Fbasal, CHO-CRE Singlet_413, np

compound | experimentalValue
OCCN(CCO)c1nc(N2CCCCC2)c2nc(N(CCO)CCO)nc(N3CCCCC3)c2n1 | 0.11
CCCCC/C=C\C/C=C\C/C=C\C/C=C\CCCC(=O)OC(CO)COC(=O)CCCCCCCCCCCCCCCCC (stereo not drawn) | −0.01
CCCCC/C=C\C=C\[C@@H](O)C/C=C\C/C=C\CCCC(=O)O [Cpd 3, 11(S)-HETE] | 0.00
CCCCC/C=C\C/C=C\C/C=C\C=C\[C@@H](O)CCCC(=O)O (racemic) [Cpd 2, (±)5-HETE] | 0.01
CCCCC/C=C\C/C=C\C/C=C\C=C\C(=O)CCCC(=O)O | 0.01
CC/C=C\C/C=C\C/C=C\C/C=C\C/C=C\CCCC(=O)O | 0.05
CCCCC/C=C\C[C@@H](O)/C=C/C=C/C=C/[C@@H](O)CCCC(=O)O (relative stereo) [Cpd 8, 5(S), 12(R)-DIHETE all trans] | 0.01
CCCCC/C=C\CC1OC1C/C=C\C/C=C\CCCC(=O)O (stereo not drawn) | 0.02
CCCCC/C=C\C/C=C\C/C=C\C=C\[C@H](CCCC(=O)O)OO [Cpd 6, 5(S)-HPETE] | 0.01
CCCCC/C=C\C[C@@H]1O[C@H]1C(O)/C=C\C/C=C\CCCC(=O)O (stereo partly drawn) | 0.02
CC/C=C\C/C=C\C/C=C\C/C=C\C=C\C(O)CCCC(=O)O (racemic) [Cpd 5, (±)5-HEPE] | 0.03
CCCCC/C=C\C/C=C\C/C=C\C/C=C\CCCC(=O)OC(CO)CO | 0.02
CCCCC/C=C\C/C=C\C/C=C\C=C\[C@@H](O)CCCC(=O)O [Cpd 1, 5(S)-HETE] | 0.01
CCCCCCCC/C=C\C/C=C\C=C\C(O)CCCC(=O)O (racemic) [Cpd 4, (±)5-HETrE] | 0.03
CCCCC/C=C\C/C=C\C/C=C\C/C=C\CCCC(=O)O | 0.03

* * *

The reader will find reported dF/F (Fmax−Fbasal)/Fbasal, CHO-CRE Contig 88:1, np values listed item by item below.
Tested on: Contig 88:1
Assay: Selectivity check: Ca2+ signal (Flipr) in CHO-CRE cells transfected with Contig 88:1
Format: cell-based, human
Settings: not primed
Experimental: Twenty-four hours before the experiment, the cells are havested, counted and seeded in 384-well plates at 10000 cells per wells and put at 37° C./5% CO2. […] The cells are loaded with 2 μM Fluo-4 in HBSS/Hepes buffer. […] A 10 seconds baseline is recorded prior compounds injection. After the injection, the signal is recorded every second for one minute. Then, signal decay is measured for 20 additional seconds. […]
measuredMetric: dF/F (Fmax−Fbasal)/Fbasal, CHO-CRE Contig 88:1, np

molecule | experimentalValue
CC/C=C\C/C=C\C/C=C\C/C=C\C/C=C\CCCC(=O)O [Cpd 12, EICOSAPENTAENOIC ACID (20:5 n-3)] | 0.03
CCCCC/C=C\CC1OC1C/C=C\C/C=C\CCCC(=O)O (centres unmarked) [Cpd 9, 11,12-EPOXYEICOSATRIENOIC ACID] | 0.02
CCCCC/C=C\C/C=C\C/C=C\C=C\[C@@H](O)CCCC(=O)O (racemic) [Cpd 2, (±)5-HETE] | 0.01
CCCCC/C=C\C/C=C\C/C=C\C=C\C(=O)CCCC(=O)O [Cpd 10, 5-KETOEICOSATETRAENOIC ACID] | 0.00
CCCCC/C=C\C/C=C\C/C=C\C/C=C\CCCC(=O)OC(CO)CO [Cpd 14, 2-ARACHIDONOYLGLYCEROL] | 0.00
CCCCC/C=C\C[C@@H]1O[C@H]1C(O)/C=C\C/C=C\CCCC(=O)O (some centres unmarked) [Cpd 7, HEPOXILIN B3] | 0.00
CCCCC/C=C\C/C=C\C/C=C\C/C=C\CCCC(=O)O [Cpd 13, ARACHIDONIC ACID (20:4 n-6)] | 0.02
CCCCCCCC/C=C\C/C=C\C=C\C(O)CCCC(=O)O (racemic) [Cpd 4, (±)5-HETrE] | 0.01

* * *

tested on: Contig 88:1; experiment: Selectivity check: Ca2+ signal (Flipr) in CHO-CRE cells transfected with Contig 88:1; assay type: cell-based, human; settings: not primed
# dF/F (Fmax−Fbasal)/Fbasal, CHO-CRE Contig 88:1, np values compiled below
measuredMetric: dF/F (Fmax−Fbasal)/Fbasal, CHO-CRE Contig 88:1, np

compound | experimentalValue
CCCCC/C=C\C/C=C\C/C=C\C=C\[C@H](CCCC(=O)O)OO [Cpd 6, 5(S)-HPETE] | 0.00
OCCN(CCO)c1nc(N2CCCCC2)c2nc(N(CCO)CCO)nc(N3CCCCC3)c2n1 | 0.39
CCCCC/C=C\C[C@@H](O)/C=C/C=C/C=C/[C@@H](O)CCCC(=O)O (relative stereo) [Cpd 8, 5(S), 12(R)-DIHETE all trans] | 0.01
CCCCC/C=C\C=C\[C@@H](O)C/C=C\C/C=C\CCCC(=O)O [Cpd 3, 11(S)-HETE] | 0.00

Sourced from patent US20040175789A1
